// data source = patent US7659404B2

Recorded fold resistance (FR), strain S by entry
Tested on: virus strain S (R13080)
Experimental Protocol: microbe, parasite or virus in culture
Assay type: cell-based, HIV
Details: FR=EC50(mutant strain)/EC50(HIV-1 strain LAI); strain S
Procedure: HIV- or mock-infected MT4 cells were incubated for five days in the presence of various concentrations of the inhibitor. […] Cell viability is measured by measuring the concentration of MTT, a yellow, water soluble tetrazolium dye that is converted to a purple, water insoluble formazan in the mitochondria of living cells only. Upon solubilization of the resulting formazan crystals with isopropanol, the absorbance of the solution is monitored at 540 nm. […]
Value Type: fold resistance (FR), strain S

[[record]]
compound = "CC(C)CN(CC(O)C(Cc1ccccc1)NC(=O)OC1CNC(=O)C1)S(=O)(=O)c1ccc2nc(NC(=O)CN(C)C)sc2c1 (stereo not drawn)"
value_type = "fold resistance (FR), strain S"
test_result = 0.2

[[record]]
compound = "CC(C)CN(CC(O)C(Cc1ccccc1)NC(=O)OC1COC2OCCC12)S(=O)(=O)c1ccc2nc(NCC[N+](C)(C)[O-])sc2c1 (stereo not drawn)"
value_type = "fold resistance (FR), strain S"
test_result = 5.1

[[record]]
compound = "CC(C)CN(C[C@@H](O)[C@H](Cc1ccccc1)NC(=O)O[C@H]1CCOC1)S(=O)(=O)c1ccc2nc(NC(=O)CN(C)C)sc2c1"
value_type = "fold resistance (FR), strain S"
test_result = 99.6

[[record]]
compound = "CC(=O)Nc1nc2ccc(S(=O)(=O)N(CC(C)C)C[C@@H](O)[C@H](Cc3ccccc3)NC(=O)Cc3cc(C)no3)cc2s1"
value_type = "fold resistance (FR), strain S"
test_result = 195.4

[[record]]
compound = "CCOC(=O)Nc1nc2ccc(S(=O)(=O)N(CC(C)C)CC(O)C(Cc3ccccc3)NC(=O)OC3COC4OCCC34)cc2s1 (stereo not drawn)"
value_type = "fold resistance (FR), strain S"
test_result = 1.7

[[record]]
compound = "Cc1cccc(C)c1OCC(=O)N[C@@H](Cc1ccccc1)[C@H](O)CN(CC(C)C)S(=O)(=O)c1ccc2nc(NC(=O)CN3CCCC3)sc2c1"
value_type = "fold resistance (FR), strain S"
test_result = 10.0

[[record]]
compound = "Cc1cccc(C)c1OCC(=O)N[C@@H](Cc1ccccc1)[C@H](O)CN(CC(C)C)S(=O)(=O)c1ccc2nc(NCCN3CCNCC3)sc2c1"
value_type = "fold resistance (FR), strain S"
test_result = 4.7

[[record]]
compound = "CCN1CCCC1CNc1nc2ccc(S(=O)(=O)N(CC(C)C)C[C@@H](O)[C@H](Cc3ccccc3)NC(=O)O[C@H]3CO[C@H]4OCC[C@H]43)cc2s1 (stereo partly drawn)"
value_type = "fold resistance (FR), strain S"
test_result = 4.68

[[record]]
compound = "Cc1c(N)cccc1C(=O)N[C@@H](Cc1ccccc1)[C@H](O)CN(CC(C)C)S(=O)(=O)c1ccc2nc(NCCN3CCCC3)sc2c1"
value_type = "fold resistance (FR), strain S"
test_result = 19.9

[[record]]
compound = "Cc1cc(N)ccc1C(=O)NC(Cc1ccccc1)C(O)CN(CC(C)C)S(=O)(=O)c1ccc2nc(NC(=O)CN(C)C)sc2c1 (stereo not drawn)"
value_type = "fold resistance (FR), strain S"
test_result = 3.0

[[record]]
compound = "CC(=O)Nc1nc2ccc(S(=O)(=O)N(CC(C)C)C[C@@H](O)[C@H](Cc3ccccc3)NC(=O)c3cc([N+](=O)[O-])ccc3C)cc2s1"
value_type = "fold resistance (FR), strain S"
test_result = 118.0

[[record]]
compound = "CC(C)CN(C[C@@H](O)[C@H](Cc1ccccc1)NC(=O)O[C@H]1CCOC1)S(=O)(=O)c1ccc2nc(NCCN3CCCC3)sc2c1.O=C(O)C(F)(F)F"
value_type = "fold resistance (FR), strain S"
test_result = 180.7

[[record]]
compound = "CC(=O)N(C)c1nc2ccc(S(=O)(=O)N(CC(C)C)C[C@@H](O)[C@H](Cc3ccccc3)NC(=O)OCc3cccnc3)cc2s1"
value_type = "fold resistance (FR), strain S"
test_result = 121.0

[[record]]
compound = "Cc1cccc(C)c1OCC(=O)N[C@@H](Cc1ccccc1)[C@H](O)CN(CC(C)C)S(=O)(=O)c1ccc2nc(NCCCN(C)C)sc2c1"
value_type = "fold resistance (FR), strain S"
test_result = 3.8

[[record]]
compound = "Cc1c(N)cccc1C(=O)N[C@@H](Cc1ccccc1)[C@H](O)CN(CC(C)C)S(=O)(=O)c1ccc2nc(NC(=O)CN3CCCC3)sc2c1"
value_type = "fold resistance (FR), strain S"
test_result = 16.1

[[record]]
compound = "CC(C)CN(C[C@@H](O)[C@H](Cc1ccccc1)NC(=O)O[C@H]1CO[C@H]2OCC[C@H]21)S(=O)(=O)c1ccc2nc(N(C)CCCN(C)C)sc2c1"
value_type = "fold resistance (FR), strain S"
test_result = 26.3

[[record]]
compound = "CC(C)CN(CC(O)C(Cc1ccccc1)NC(=O)OC1COC2OCCC12)S(=O)(=O)c1ccc2nc(NC(=O)CN3CCCC3)sc2c1 (stereo not drawn) [Compound 12]"
value_type = "fold resistance (FR), strain S"
test_result = 0.8

[[record]]
compound = "Cc1cc(C#N)cc(C)c1OCC(=O)N[C@@H](Cc1ccccc1)[C@H](O)CN(CC(C)C)S(=O)(=O)c1ccc2nc(NC(=O)CN3CCCC3)sc2c1"
value_type = "fold resistance (FR), strain S"
test_result = 19.0

[[record]]
compound = "CC(C)CN(C[C@@H](O)[C@H](Cc1ccccc1)NC(=O)OCc1cncs1)S(=O)(=O)c1ccc2nc(NCCN3CCCC3)sc2c1.O=C(O)C(F)(F)F"
value_type = "fold resistance (FR), strain S"
test_result = 27.9

[[record]]
compound = "CC(C)CN(CC(O)C(Cc1ccccc1)NC(=O)OC1COC2OCCC12)S(=O)(=O)c1ccc2nc(NC(=O)CN(C)C)sc2c1 (mixture of isomers) [Compound 3]"
value_type = "fold resistance (FR), strain S"
test_result = 1.8

[[record]]
compound = "CC(C)CN(C[C@@H](O)[C@H](Cc1ccccc1)NC(=O)O[C@H]1CO[C@H]2OCC[C@H]21)S(=O)(=O)c1ccc2nc(N3CCN(C)C3=O)sc2c1"
value_type = "fold resistance (FR), strain S"
test_result = 42.5

[[record]]
compound = "CC(=O)N(C)c1nc2ccc(S(=O)(=O)N(Cc3ccccn3)CC(O)C(Cc3ccccc3)NC(=O)OC3COC4OCCC34)cc2s1 (stereo not drawn)"
value_type = "fold resistance (FR), strain S"
test_result = 467.3

[[record]]
compound = "CC(C)CN(C[C@@H](O)[C@H](Cc1ccccc1)NC(=O)O[C@H]1CO[C@H]2OCC[C@H]21)S(=O)(=O)c1ccc2nc(NCCN(C)C(=O)OC(C)(C)C)sc2c1"
value_type = "fold resistance (FR), strain S"
test_result = 38.6

[[record]]
compound = "CC(=O)N(CCN1CCCC1)c1nc2ccc(S(=O)(=O)N(CC(C)C)C[C@@H](O)[C@H](Cc3ccccc3)NC(=O)OCc3cccnc3)cc2s1"
value_type = "fold resistance (FR), strain S"
test_result = 79.6


---

System: clinically isolated HIV strain B
Experimental Protocol: Antiviral spectrum, cellular assay (fold resistance), strain B
Assay type: cell-based
Details: FR=EC50(mutant strain)/EC50(HIV-1 strain LAI)
The entries below come with measured fold resistance (FR), strain B values attached.
Value Type: fold resistance (FR), strain B

[[record]]
compound = "CC(=O)N(C)c1nc2ccc(S(=O)(=O)N(CC(C)C)CC(O)C(Cc3ccccc3)NC(=O)OC3COC4OCCC34)cc2s1 (mixture of isomers)"
value_type = "fold resistance (FR), strain B"
test_result = 1.5

[[record]]
compound = "CC(C)CN(CC(O)C(Cc1ccccc1)NC(=O)OC1COC2OCCC12)S(=O)(=O)c1ccc2nc(NC(=O)CN(C)C)sc2c1 (stereo not drawn)"
value_type = "fold resistance (FR), strain B"
test_result = 0.4

[[record]]
compound = "Cc1cc(N)ccc1C(=O)NC(Cc1ccccc1)C(O)CN(CC(C)C)S(=O)(=O)c1ccc2nc(NC(=O)CN(C)C)sc2c1 (stereo not drawn)"
value_type = "fold resistance (FR), strain B"
test_result = 0.9

[[record]]
compound = "CC(C)CN(C[C@@H](O)[C@H](Cc1ccccc1)NC(=O)O[C@H]1CO[C@H]2OCC[C@H]21)S(=O)(=O)c1ccc2nc(NC(=O)CN3CCCC3)sc2c1.O=C(O)C(=O)O"
value_type = "fold resistance (FR), strain B"
test_result = 0.2

[[record]]
compound = "CC(C)CN(C[C@@H](O)[C@H](Cc1ccccc1)NC(=O)O[C@H]1CO[C@H]2OCC[C@H]21)S(=O)(=O)c1ccc2nc(NC(=O)CN3CCCC3)sc2c1.Cl"
value_type = "fold resistance (FR), strain B"
test_result = 0.2

[[record]]
compound = "Cc1cccc(C)c1OCC(=O)N[C@@H](Cc1ccccc1)[C@H](O)CN(CC(C)C)S(=O)(=O)c1ccc2nc(NC(=O)CN3CCCC3)sc2c1"
value_type = "fold resistance (FR), strain B"
test_result = 1.9

[[record]]
compound = "CC(C)CN(C[C@@H](O)[C@H](Cc1ccccc1)NC(=O)O[C@H]1CO[C@H]2OCC[C@H]21)S(=O)(=O)c1ccc2nc(NCCN(C)C)sc2c1"
value_type = "fold resistance (FR), strain B"
test_result = 0.3

[[record]]
compound = "CCOC(=O)Nc1nc2ccc(S(=O)(=O)N(CC(C)C)CC(O)C(Cc3ccccc3)NC(=O)OC3COC4OCCC34)cc2s1 (stereo not drawn)"
value_type = "fold resistance (FR), strain B"
test_result = 0.2

[[record]]
compound = "CC(C)CN(CC(O)C(Cc1ccccc1)NC(=O)OC1COC2OCCC12)S(=O)(=O)c1ccc2nc(NC(=O)CN3CCCC3)sc2c1 (stereo not drawn) [Compound 12]"
value_type = "fold resistance (FR), strain B"
test_result = 0.4

[[record]]
compound = "CC(C)CN(CC(O)C(Cc1ccccc1)NC(=O)OC1COC2OCCC12)S(=O)(=O)c1ccc2nc(NC(=O)CN3CCCC3)sc2c1 (mixture of isomers) [Compound 7]"
value_type = "fold resistance (FR), strain B"
test_result = 0.3

[[record]]
compound = "CC(C)CN(CC(O)C(Cc1ccccc1)NC(=O)OC1COC2OCCC12)S(=O)(=O)c1ccc2nc(NC(=O)CN3CCOCC3)sc2c1 (mixture of isomers)"
value_type = "fold resistance (FR), strain B"
test_result = 0.4

[[record]]
compound = "CC(=O)Nc1nc2ccc(S(=O)(=O)N(CC(C)C)CC(O)C(Cc3ccccc3)NC(=O)OC3COC4OCCC34)cc2s1 (mixture of isomers)"
value_type = "fold resistance (FR), strain B"
test_result = 0.3

